pIC50: −log10 of the molar value.
What follows is a collection of pIC50 values obtained with rhBACE (Homo sapiens, UniProt P56817).
Sequence (P56817 46-501): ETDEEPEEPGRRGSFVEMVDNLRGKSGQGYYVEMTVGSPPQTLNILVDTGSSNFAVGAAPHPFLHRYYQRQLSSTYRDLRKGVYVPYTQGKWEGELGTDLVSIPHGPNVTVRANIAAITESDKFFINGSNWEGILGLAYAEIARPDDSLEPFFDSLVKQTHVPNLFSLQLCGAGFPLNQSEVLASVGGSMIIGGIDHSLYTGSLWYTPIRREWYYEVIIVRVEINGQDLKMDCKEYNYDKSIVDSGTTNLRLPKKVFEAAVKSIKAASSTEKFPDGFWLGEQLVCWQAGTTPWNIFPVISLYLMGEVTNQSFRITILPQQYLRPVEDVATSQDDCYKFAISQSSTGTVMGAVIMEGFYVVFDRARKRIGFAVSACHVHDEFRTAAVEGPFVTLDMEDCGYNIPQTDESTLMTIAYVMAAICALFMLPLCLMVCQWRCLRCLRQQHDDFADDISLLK
readout: pIC50

line.notation	readout	obs.value
Oc1c(Cl)cc(Cl)cc1/C=N/Nc1c(Cl)cncc1Cl	pIC50	4.54
O=[N+]([O-])c1cc(C(F)(F)F)cc([N+](=O)[O-])c1N/N=C/c1cc(Cl)cc(Cl)c1O	pIC50	4.41
Oc1c(Cl)cc(Cl)cc1/C=N/Nc1ncnc2sc3c(c12)CCCC3	pIC50	4.28
O=C(Nc1cc(-c2ccc(Cl)cc2)nn1-c1ccc(I)cc1)C1CCC1	pIC50	4.35
